# System: Rhipicephalus sanguineus
# assay.procedure: Tick contact behavioral assay (TCBA), excitatory response in glass vials
# measurement.parameters: 24 h post-treatment
observed.property: TCBA Assay EC50 (@ 24 h, ppm)
Write the answer as a number in ppm, unit excluded.

Record request: TCBA Assay EC50 (@ 24 h, ppm) value, item Cc1cccc(C(C)c2ncc[nH]2)c1C (centres unmarked) [demiditraz]
5

Record request: TCBA Assay EC50 (@ 24 h, ppm) value, item Cc1cccc2c1CCC2c1ncc[nH]1 (centres unmarked) [ML-449]
6

Record request: TCBA Assay EC50 (@ 24 h, ppm) value, item Cc1cccc2c1C(c1ncc[nH]1)CC2 (centres unmarked)
6

Record request: TCBA Assay EC50 (@ 24 h, ppm) value, item Cc1cccc2c1CCCC2c1ncc[nH]1 (centres unmarked)
6

Record request: TCBA Assay EC50 (@ 24 h, ppm) value, item Cc1ccc(/N=C/N(C)/C=N/c2ccc(C)cc2C)c(C)c1 [Amitraz, amitraz]
1.6
